- TEST SYSTEM: MAO-A (Rattus norvegicus, UniProt P21396)
- Construct: from tissue; host or cells: rat brain homogenate per the methods
- PROTOCOL NOTES: Time-dependence of MAO-A inhibition (pre-incubation times)
- Format: biochemical
- CONDITIONS USED: pre-incubation time 60 min
QUANTITY: IC50

Exam item: Requested read-out: IC50. Entry: C#CCN(Cc1ccc(O)c2ncccc12)C(C#N)CCC1CCN(Cc2ccccc2)CC1 (stereo not shown) [Compound 6]
Marked response: 2300 nM

* * *

- TEST SYSTEM: ratMAO-A (Rattus norvegicus)
- Sequence (P21396 1-526): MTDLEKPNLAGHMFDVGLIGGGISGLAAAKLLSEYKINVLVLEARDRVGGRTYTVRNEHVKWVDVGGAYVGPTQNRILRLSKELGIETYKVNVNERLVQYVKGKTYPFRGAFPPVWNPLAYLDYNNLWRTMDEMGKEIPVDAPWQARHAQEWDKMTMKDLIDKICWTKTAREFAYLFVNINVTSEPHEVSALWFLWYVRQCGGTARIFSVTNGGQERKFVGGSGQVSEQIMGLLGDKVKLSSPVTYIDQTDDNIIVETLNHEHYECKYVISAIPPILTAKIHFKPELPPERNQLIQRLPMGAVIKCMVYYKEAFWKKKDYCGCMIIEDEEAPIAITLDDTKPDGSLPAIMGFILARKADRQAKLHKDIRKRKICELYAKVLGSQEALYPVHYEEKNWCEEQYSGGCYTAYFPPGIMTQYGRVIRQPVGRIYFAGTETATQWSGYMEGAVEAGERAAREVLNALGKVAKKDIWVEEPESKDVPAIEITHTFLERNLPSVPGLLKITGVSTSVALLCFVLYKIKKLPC
QUANTITY: Ki (µM)
Please give a number only; it is taken to be in µM.

Exam item: Requested read-out: Ki. Entry: C#CCN(Cc1ccc(O)c2ncccc12)C(C#N)CCC1CCN(Cc2ccccc2)CC1 (stereo not shown)
Marked response: 8.41
